Every entry's value here was drawn from PubChem BioAssay AID463210.

tested_on: Caspase-7 (Homo sapiens) (UniProt P55210)
Sequence (P55210 whole entry D23A/D198A/D206A): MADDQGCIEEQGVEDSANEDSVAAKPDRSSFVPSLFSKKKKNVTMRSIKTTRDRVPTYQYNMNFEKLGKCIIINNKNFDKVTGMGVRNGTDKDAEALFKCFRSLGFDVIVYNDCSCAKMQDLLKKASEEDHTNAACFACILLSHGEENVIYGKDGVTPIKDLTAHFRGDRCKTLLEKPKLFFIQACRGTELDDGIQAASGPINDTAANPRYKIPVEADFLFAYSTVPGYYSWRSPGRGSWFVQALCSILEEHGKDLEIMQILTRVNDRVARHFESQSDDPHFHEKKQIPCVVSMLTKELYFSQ
test_details: procaspase-7 activators, primary screen, counter-screen for procaspase-3 activator project, biochemical, absorbance, HTS, human (AID 463210)
experimental_parameters: recombinant procaspase-7, Ac-DEVD-pNA absorbance 405 nm; at 8.5 µM; D23A/D198A/D206A triple mutant, cannot self-cleave; scale: DMSO 0, 5 µM enzyme 100
The whole screen tested about 330,000 compounds, of which about 300 (0.091%) were called active.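 How the source made its calls: active means percent activation above the screen-wide mean plus 3 SD (cut at about 25% in these data); inactive means the rest.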 Many of the other results were omitted from the sample, so actives are more common in it than they were.
In this exercise, the only acceptable responses are yes (1) = active, no (0) = inactive

Ask: Identify the outcome logged in this assay for the compound shown: O=C1OCCN1C(=O)[C@H]1[C@H](c2ccc(Cl)cc2)C(c2cccc(Cl)c2)=NN1c1ccc(Br)cc1
Result: no (0)

Ask: Identify the outcome logged in this assay for the compound shown: COc1ccc(-c2onc3ccc(C(C)=O)cc23)cc1
Result: yes (1)

Ask: Identify the outcome logged in this assay for the compound shown: CCOC(=O)[C@@H]1[C@H]2COc3cc(OC)ccc3[C@@H]2N2C(=O)N(c3cccc(C)c3)C(=O)[C@@]12C
Result: no (0)

Ask: Identify the outcome logged in this assay for the compound shown: O=C(NC1CCCC1)C(NS(=O)(=O)c1ccc(Br)s1)c1ccccc1 (stereo unspecified)
Result: no (0)

Ask: Identify the outcome logged in this assay for the compound shown: Oc1ccc(-c2onc3ccc(Cl)cc23)cc1
Result: no (0)

Ask: Identify the outcome logged in this assay for the compound shown: CCCNC(=S)N1CCCC(c2nc3ccccc3[nH]2)C1 (stereo unspecified)
Result: no (0)

Ask: Identify the outcome logged in this assay for the compound shown: CCOc1ccc2c(c1)c(=O)c(S(=O)(=O)c1ccc(C)cc1)cn2CC
Result: no (0)

Ask: Identify the outcome logged in this assay for the compound shown: COc1ccc(OC)c(S(=O)(=O)Nc2cccc(-c3ccc4nncn4n3)c2)c1
Result: no (0)

Ask: Identify the outcome logged in this assay for the compound shown: O=C(NCCCO)/C(=C\C=C\c1ccccc1)NC(=O)c1ccccc1Cl
Result: no (0)

Ask: Identify the outcome logged in this assay for the compound shown: CCN(CC)c1ccc2oc(=O)c(C)nc2c1
Result: yes (1)

Ask: Identify the outcome logged in this assay for the compound shown: COc1ccccc1CNC(=O)CN1CCC(n2cnc3cc(F)ccc32)CC1
Result: no (0)

Ask: Identify the outcome logged in this assay for the compound shown: CC1(C)Cc2c(sc(NC(=O)C(=O)NCC3CCCO3)c2C(=O)O)CO1 (stereo unspecified)
Result: no (0)

Ask: Identify the outcome logged in this assay for the compound shown: Cc1ccccc1NC(=O)CSC1=NCCN1
Result: no (0)

Ask: Identify the outcome logged in this assay for the compound shown: COc1ccc2sc(-c3ccc(S(C)(=O)=O)cc3)c(-c3ccc(C(N)=O)cc3)c2c1
Result: no (0)

Ask: Identify the outcome logged in this assay for the compound shown: Cc1ccccc1N(C(=O)CNC(=O)c1cccs1)C(C(=O)NC1CCCC1)c1ccncc1 (stereo unspecified)
Result: no (0)

Ask: Identify the outcome logged in this assay for the compound shown: COc1ccccc1CNC(=O)COC(=O)CNS(=O)(=O)c1ccc(NC(C)=O)cc1
Result: no (0)

Ask: Identify the outcome logged in this assay for the compound shown: COc1ccc2sc(-c3ccc(S(C)(=O)=O)cc3)c(C#Cc3cncn3C)c2c1
Result: yes (1)

Ask: Identify the outcome logged in this assay for the compound shown: Cc1cccc(N2CC(C)Cn3c2nc2c3c(=O)n(CC(=O)OCc3ccccc3)c(=O)n2C)c1 (stereo unspecified)
Result: no (0)

---

tested_on: Caspase-7 (Homo sapiens)
test_details: procaspase-7 activators, primary screen, counter-screen for procaspase-3 activator project, biochemical, absorbance, HTS, human (AID 463210)
experimental_parameters: recombinant procaspase-7, Ac-DEVD-pNA absorbance 405 nm; at 8.5 µM; stronger effect = higher value; D23A/D198A/D206A triple mutant, cannot self-cleave; scale: DMSO 0, 5 µM enzyme 100
Hit rate of the full screen: of about 330,000 compounds, about 300 (0.091%) were called active. What follows is part of a selection rich in actives, with near analogues and random picks from the rest.
Consider the following molecules; for each one, report its activation.
Numbers only, in %.

[[record]]
molecule = "COc1cc(N=Cc2c(O)c3ccccc3oc2=O)c(OC)cc1Cl"
experimental_result = 14.3

[[record]]
molecule = "COc1ccc(C(O)(C2CCCCC2)C(CN2CCCC2)c2ccccc2)cc1 (stereo unspecified)"
experimental_result = 0.02

[[record]]
molecule = "CCCCCc1nnc(NC(=O)c2ccc(=O)n(C)n2)s1"
experimental_result = 9.59


Would you mind giving activation for every molecule in the list below?
1. CC(NC(=O)COc1ccc(-c2ccccc2)cc1)C1CCCO1 (stereo unspecified)
2. CCCCNS(=O)(=O)c1ccc2nc(SCC(=O)Nc3cc(C)cc(C)c3)[nH]c2c1
3. CC(=O)Nc1ccc(NS(=O)(=O)c2cc(C)sc2C)cc1

Result:
1. -7.63
2. 7.82
3. 4.24

---

tested_on: Caspase-7 (Homo sapiens) (UniProt P55210)
test_details: procaspase-7 activators, primary screen, counter-screen for procaspase-3 activator project, biochemical, absorbance, HTS, human (AID 463210)
experimental_parameters: recombinant procaspase-7, Ac-DEVD-pNA absorbance 405 nm; at 8.5 µM; D23A/D198A/D206A triple mutant, cannot self-cleave; scale: DMSO 0, 5 µM enzyme 100
Among all 330,000 compounds or so, about 300 (0.091%) were called active.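 How the source made its calls: active means percent activation above the screen-wide mean plus 3 SD (cut at about 25% in these data); inactive means the rest.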 What follows is part of a selection rich in actives, with near analogues and random picks from the rest.
In this exercise, the only acceptable responses are Y (active), N (inactive)

Some solved entries appear below for comparison.
[[record]]
compound = "CCc1nnc(NC(=O)[C@@H](NC(=O)c2cccc(C)c2)C(C)C)s1"
qualitative_label = "N"

[[record]]
compound = "CCOC(=O)C1(CCOC)CCN(Cc2ccc(C(=O)OC)cc2)CC1"
qualitative_label = "N"

[[record]]
compound = "CCOC(=O)C1(CCOC)CCN(Cc2cc3ccccc3s2)CC1"
qualitative_label = "Y"

[[record]]
compound = "CC1(c2nnc(Cc3ccccc3)o2)CC(c2ccccc2F)=NO1 (stereo unspecified)"
qualitative_label = "N"

[[record]]
compound = "COc1ccc(CCNC2=C(Cl)C(=O)N(Cc3ccccc3)C2=O)cc1OC"
qualitative_label = "N"


Ask: Identify the outcome logged in this assay for the compound shown: COc1ccc(N2CCN(C(=O)Cn3cnc4sc(C)c(S(=O)(=O)N5CCOCC5)c4c3=O)CC2)cc1
Result: N

Ask: Identify the outcome logged in this assay for the compound shown: CCc1c(C)c2ccc(OC3CCCCC3=O)cc2oc1=O (stereo unspecified)
Result: N

Ask: Identify the outcome logged in this assay for the compound shown: CCOC(=O)N1CCN(C(=O)c2ccccc2SCC(=O)NCC2CCCCC2)CC1
Result: N

Ask: Identify the outcome logged in this assay for the compound shown: CCOc1cc(C(=O)Nc2c(C)ccc3nsnc23)cc(OCC)c1OCC
Result: N

Ask: Identify the outcome logged in this assay for the compound shown: COc1ccc(Nc2ncnc3ccc(Br)cc23)c(OC)c1
Result: N

Ask: Identify the outcome logged in this assay for the compound shown: COc1ccc(COCCN2CCN(S(=O)(=O)c3ccccc3)CCC2=O)cc1
Result: N

Ask: Identify the outcome logged in this assay for the compound shown: COc1ccc(Nc2ncnc3sc(-c4ccccc4)cc23)c(OC)c1
Result: Y

Ask: Identify the outcome logged in this assay for the compound shown: COc1ccc(Nc2ncnc3sc(C)cc23)cc1
Result: N

---

tested_on: Caspase-7 (Homo sapiens) (UniProt P55210)
test_details: procaspase-7 activators, primary screen, counter-screen for procaspase-3 activator project, biochemical, absorbance, HTS, human (AID 463210)
experimental_parameters: recombinant procaspase-7, Ac-DEVD-pNA absorbance 405 nm; at 8.5 µM; stronger effect = higher value; D23A/D198A/D206A triple mutant, cannot self-cleave; scale: DMSO 0, 5 µM enzyme 100
In all, about 330,000 compounds went through this assay and about 300 (0.091%) were called active. What follows is part of a selection rich in actives, with near analogues and random picks from the rest.
parameter: activation (%)
Numbers only, in %.

The following compounds have reported results that may help.
[[record]]
compound = "O=C(Cc1coc2ccc3ccccc3c12)NCc1cccs1"
parameter = "activation"
experimental_result = 9.96

[[record]]
compound = "O=C(NCCc1ccco1)c1ccc(OCc2cn3ccccc3n2)cc1"
parameter = "activation"
experimental_result = 15.8


Would you mind giving activation for every compound in the list below?
1. Cc1cc(Cl)c2oc(C(=O)N3CCC(O)(c4ccccc4)CC3)c(C)c2c1
2. Cc1cccc(-n2c(SCC(=O)Nc3cccc(S(=O)(=O)NC4=NCCCCC4)c3)nc3ccccc3c2=O)c1C
3. O=C1CN(C(=O)c2cc(F)cc(F)c2)c2ccccc2N1
4. CCN(C[C@H]1N[C@@](CC)(C(=O)OC)[C@H]2C(=O)N(C)C(=O)[C@@H]12)C(=O)Nc1ccc(F)cc1
5. COc1ccc(-n2cc(CNC3CCOCC3)c(-c3cccc(F)c3)n2)cc1
6. COc1cccc2cc(C(C)N(CCCN3CCOCC3)C(=O)Nc3ccc(Cl)cc3)oc12 (stereo not drawn)
7. CC(C)C[C@@H](COc1ccccc1)N1CCN(CC(C)C)CCC1=O

Result:
-0.4
-0.51
2.59
3.05
-1.78
3.94
-4.75
